Each recorded value in this set is attributed to the supplement of paper PMC10065799.

# SUBJECT_OF_TEST: Grb2 SH2 (UniProt P62993)
# PROTOCOL_NOTES: SH2 binding enrichment of the phosphorylated peptide, bacterial display (enrichment ratio); higher = better substrate or ligand; peptides without Tyr show the background;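 note: peptide library displayed on the E. coli surface as eCPX fusions, selected cells deep-sequenced, score is each peptide's frequency after selection divided by its frequency in the input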
MEASURED_METRIC: SH2 binding enrichment

Would you please look over these solved cases?
sequence_content="PSARTYCFKQE [KLHDC9_Y175_YF]" val=0.944
sequence_content="HSPLRYTSILT [OR51B6_Y130_R125H]" val=1.21
sequence_content="FQNSLYAPDFS [FAM92A_Y226_R222Q_YF]" val=0.891
sequence_content="CTTIHYSFMCN [TP53_Y234_N235S_YF]" val=1.88
sequence_content="INMKKYCKKDY [NTN1_Y490]" val=0.948
sequence_content="GSRGKYFSGFR [ATM_Y332_S333F]" val=0.963
sequence_content="RLLREYQELMN [KRT75_Y434]" val=1.04
sequence_content="RTMPDYTSFNT [EPHB2_Y912_I909M]" val=0.935

P. LDLSYYHTSSS [EMD_Y182_P183H]
Q. KTNVSYFGALD [CACNB4_Y103_C104F]
R. CPPELYALMSD [ZAP70_Y569]
Arrange the 3 sequences from largest to smallest SH2 binding enrichment. Put the labels in the requested order and list them out. R, P, Q

P. RHPREYQDLLN [DES_Y388_L385P]
Q. DQIDTYELSGG [DNM1_Y354]
Between item P and item Q , which reported SH2 binding enrichment is smaller? Choose, then provide that item's label. Q
(Q: 0.673, P: 1.06)

I. AVDMTYDGHPV [FLNB_Y1020_V1018M]
II. AVLVQYYMEHH [PTPN11_Y80_E76V]
Higher SH2 binding enrichment between I and II ? Choose, then provide that item's label. II
